Below, each of the compounds is paired with its reported GI50 value.
test system: XF498; experiment: NCI tumour cell line growth inhibition, 48 h
Activity calls are given as the source filed them. Rule as the data show it: active = GI50 up to about 1.1 µM and inactive = higher.
endpoint.label: GI50

In [3]: df
Out[3]:
                                    compound                result
 0  CC1=C(C(=O)NCc2ccccc2)C(c2ccc(Cl)c(Cl)c2)C(C(=O)NCc2ccccc2)=C(C)N1   > 100 µM (inactive)
 1  O=C(NP(=O)(N1CC1)N1CC1)c1cc(I)ccc1I [DIIODBENZOTEPH]  > 52.6 µM (inactive)
 2              Cc1ccc(/C=C2\CCCC\C2=N\O)cc1    31.3 µM (inactive)
 3  COc1cc2c(c(OC)c1OC)-c1ccc(OC)c(=O)cc1C(NC(=O)COc1ccccc1)CC2 (stereo unspecified)  < 0.0625 µM (active)
 4  CC(C)N(C(=O)C12C3C4C1C1C2C3C41I)C(C)C (stereo unspecified)   > 100 µM (inactive)
 5  COC(C(O)c1ccc2c(c1)OCO2)P(=O)(c1ccccc1)c1ccccc1 (stereo unspecified)   > 100 µM (inactive)
 6  COc1ccc(-c2cc(O)c3cc4c(cc3n2)OCO4)c(OC)c1    30.3 µM (inactive)
 7  N/N=C1/C(=O)N(c2ccc(Cl)cc2)C(=O)C(=O)C1c1nc2ccccc2s1 (stereo unspecified)  > 95.1 µM (inactive)
 8  CC1NOC(=O)C1/N=N/c1ccccc1Br (stereo unspecified)    20.3 µM (inactive)
 9      Fc1cccc(/C=N/C23CC4CC(CC(C4)C2)C3)c1   > 100 µM (inactive)
10  COC(=O)C1=C(O)c2cc3c(cc2[C@H](c2cc(OC)c(OC)c(OC)c2)C1C(=O)OC)OCO3 (stereo partly specified)    25.1 µM (inactive)

====

Below, each of the compounds is paired with its reported GI50 value.
tested on: IGROV-1; assay: NCI tumour cell line growth inhibition, 48 h
Active and inactive are the calls of the source. No stated cut-off is given here; in the data, active = GI50 up to about 1.1 µM and inactive = higher.
endpoint.label: GI50

In [3]: df
Out[3]:
                                    compound  endpoint_label               result
 0  COc1cc(C2C(C(=O)Nc3ccccc3C)=C(C)NC(C)=C2C(=O)Nc2ccccc2C)ccc1O            GI50  > 100 µM (inactive)
 1  COC(=O)Nc1nc2cc(S(=O)(=O)NC(CC(C)C)C(=O)OC)ccc2[nH]1 (stereo unspecified)            GI50   2.25 µM (inactive)
 2  COc1cc2c(cc1OC)C1c3ccccc3C(C#N)(C2)N(C(=O)c2ccccc2)C1O (stereo unspecified)            GI50   47.5 µM (inactive)
 3  Fc1ccc(C(OCCN2CCN(CCCc3ccccc3)CC2)c2ccc(F)cc2)cc1            GI50   10.4 µM (inactive)
 4  Oc1ccc(-c2c3c(nc4c2CCc2ccc(Br)cc2-4)-c2cc(Br)ccc2CC3)cc1            GI50     17 µM (inactive)
 5  C[C@]12CCC(=O)C=C1CC[C@@H]1[C@@H]2[C@@H](O)C[C@@]2(C)[C@H]1CC[C@]2(O)C(=O)COC(=O)C1CCCC1            GI50  > 100 µM (inactive)
 6  Cc1nc(C)c(C(=O)NNC(=O)Cc2ccccc2)cc1C(=O)NNC(=O)Cc1ccccc1            GI50  > 100 µM (inactive)
 7  O=C(OCC(Cl)(Cl)Cl)O[C@@H]1CCCC1(c1ccccc1)c1ccccc1            GI50  > 100 µM (inactive)
 8  CCCCNC(=O)OCCN=C1c2ccccc2C(Br)C(Br)c2ccccc21 (stereo unspecified)            GI50   49.8 µM (inactive)
 9   O=c1[nH]nc(Cc2ccc(Cl)cc2)n1/N=C/c1cccs1            GI50   23.1 µM (inactive)
10  O=C1/C(=C/c2ccc(Cl)cc2)NC(=S)N1CN1CCOCC1            GI50  > 100 µM (inactive)
11  COc1ccc(C2ON(c3cccc(C)n3)CC=C2C)cc1 (stereo unspecified)            GI50   60.8 µM (inactive)
12  COc1cc(C2SC(=N)Nc3c2c(C)nn3C(=O)c2ccccc2O)ccc1O (stereo unspecified)            GI50   1.61 µM (inactive)
13  O=c1s[s+]([O-])c2ccccc12 (stereo unspecified)            GI50  > 100 µM (inactive)
14  CN(C)CCNC(=O)c1cccc2c1nc(-c1cccnc1)c1ccccc12            GI50   1.73 µM (inactive)
15  COc1c2c(cc3c1C(O)N1CC[C@]34[C@H]3O[C@H]3[C@H](OC)C[C@@H]14)OCO2 (stereo partly specified)            GI50   64.9 µM (inactive)

====

system: SK-OV-3; assay: NCI tumour cell line growth inhibition, 48 h
Calls of active or inactive are those of the source. Rule as the data show it: active = GI50 up to about 1.1 µM and inactive = higher.
endpoint.label: GI50

>>> print(df.to_string())
                                    compound               result
 0                    IC[P+]1(c2ccccc2)CCCC1  > 100 µM (inactive)
 1            N=C(N)SCc1nc(-c2ccc(Cl)cc2)no1   26.9 µM (inactive)
 2  Cn1cc(C2(C)CC(C)(C)c3c2n(C)c2ccccc32)c2ccccc21 (configuration not stated)  > 100 µM (inactive)
 3  CN(C)CCNC(=O)c1cccc2c1nc(-c1cccnc1)c1ccccc12     10 µM (inactive)
 4  Cc1ccc(C)n1-c1ccccc1C1C=Cn2c3c1c(=O)c(OC(C)C)c(OC(C)C)c-3n[nH]c2=O (configuration not stated)  > 100 µM (inactive)
 5  COC(=O)N1C=Cc2c(c(C)c3c([nH]c4ccccc43)c2C)C1C (configuration not stated)   27.4 µM (inactive)
 6       COC(=O)C1(OC(=O)Sc2ccccc2)CCN(C)CC1   33.3 µM (inactive)
 7  NC(=O)Cn1c(=O)oc2cc(C(=O)CN3CCOCC3)ccc21  > 100 µM (inactive)
 8  CC1CCCC(C(O)CC2CC(=O)N(c3ccccc3)C(=O)C2)C1=O (configuration not stated)  > 100 µM (inactive)
 9  CC(C)=CC(O)C(C(O)CCC1(C)OCCO1)S(=O)(=O)c1ccccc1 (configuration not stated)  > 100 µM (inactive)
10    COc1cc(/C=C/C(=O)O)ccc1C(=O)OCc1ccccc1  > 100 µM (inactive)
11      O=C1c2ccccc2C(=O)c2c1sc1nc3ccccc3n21   6.87 µM (inactive)
12  COC1O[C@H]2CCN(C(=O)OCc3ccccc3)[C@H]2[C@H]1OCc1ccccc1 (some centres not stated)   23.6 µM (inactive)
13  COC(=O)Nc1nc2cc(S(=O)(=O)NC(CC(C)C)C(=O)OC)ccc2[nH]1 (configuration not stated)   4.53 µM (inactive)
14  CN1c2ccccc2N(C(=O)c2ccc([N+](=O)[O-])cc2)C(CC(=O)O)c2cccn21 (configuration not stated)  > 100 µM (inactive)
15  COC(=O)C1=C(O)c2cc3c(cc2[C@H](c2cc(OC)c(OC)c(OC)c2)C1C(=O)OC)OCO3 (some centres not stated)   44.1 µM (inactive)
16  Oc1c(C2=NNC(c3ccc(Cl)cc3Cl)C2)ccc2ccccc12 (configuration not stated)   46.3 µM (inactive)
17  O=C(O)c1cc2c(cc1CC(Cc1ccc3c(c1)CCC3)C(=O)O)CCC2 (configuration not stated)  > 100 µM (inactive)
18  CC(C)OP(=O)(c1ccccc1)c1ccc2c(c1)OCCOCCOCCOCCO2 (configuration not stated)  > 100 µM (inactive)
19  COc1ccc(C2ON(c3cccc(C)n3)CC=C2C)cc1 (configuration not stated)   97.9 µM (inactive)
20  Cn1nc(-c2ccccc2)c(C(=O)/C=C/c2ccc(Cl)cc2)c(N2CCCCC2)c1=O   3.52 µM (inactive)
21  Cc1ncc2c(n1)CCC1=C2OS(=O)(=O)CC1N(C)C (configuration not stated)  > 100 µM (inactive)

====

system: SW-620; assay: NCI tumour cell line growth inhibition, 48 h
The source made the active and inactive calls. Cut-off read from the data, not from the text of the source: active = GI50 up to about 1.1 µM and inactive = higher.
Outcome codes: y = active, n = inactive

compound	class.assignment
CC(C)=CC1CCc2ccccc2N1S(=O)(=O)c1ccc(C)cc1 (stereo not drawn)	y
Cc1cccc(C)c1NC(=O)CCC(=O)/N=C(\N)NC#N	n
[O-][S+](CCCl)c1c2ccccc2nc2ccccc12 (stereo not drawn)	n
COC(=O)[C@@]12C(=O)C=CC(=O)[C@@H]1C1C(=CC2COC(C)=O)O[C@@H]2OC3(CCCCC3)O[C@H]12 (stereo partly drawn)	n
Cn1cc(C2(C)CC(C)(C)c3c2n(C)c2ccccc32)c2ccccc21 (stereo not drawn)	n
COc1cc2c(cc1OC)C1c3ccccc3C(C#N)(C2)N(C(=O)c2ccccc2)C1O (stereo not drawn)	n
CCN(c1n[n+]2c(-c3ccccc3)csc2s1)c1n[n+]2c(-c3ccccc3)csc2s1	n
NNC(=S)NCCNC(=S)NN	n
O=C(NNC(=O)c1ccccc1O)c1ccc(O)cc1	n
COc1cc(CC2CC(c3ccc4c(c3)OCO4)OC2=O)cc(OC)c1OC (stereo not drawn)	n
CCOC(=O)C1CCn2c(nc3c(=O)n(C)c(=O)n(C)c32)S1 (stereo not drawn)	n
CC(C)N(C(=O)C12C3C4C1C1C2C3C41I)C(C)C (stereo not drawn)	n
CCn1c2ccccc2c2cc(/N=N\c3ccc(C#N)cc3)ccc21	n
O=C(O)c1cc2c(cc1CC(Cc1ccc3c(c1)CCC3)C(=O)O)CCC2 (stereo not drawn)	n
CC(=O)OC1CC2C(=O)CC1(C)C2(C)C (stereo not drawn)	n
O=c1c(Sc2ncccn2)c(Sc2ncccn2)cnn1CCl	n
COc1cc(/C=C/C(=O)CC(=O)/C=C/c2ccc(O)c(OC)c2)ccc1O	n
O=C(CC(=O)Nc1ccccc1Cl)NNC(c1cc(/N=N/c2ccc(Br)cc2)ccc1O)P(O)O (stereo not drawn)	y
CC1(C)C(C#N)C1C1=C(N2CCOCC2)[C@]2(C)C(OC(=O)c3ccccc3)CC[C@@H]2C1 (stereo partly drawn)	n
O=C1/C(=C/c2ccc(Cl)c(Cl)c2)CNC/C1=C\c1ccc(Cl)c(Cl)c1	n
OCC1COc2cc(Cl)c(Cl)cc2O1 (stereo not drawn)	n
CCCCNC(=O)OCCN=C1c2ccccc2C(Br)C(Br)c2ccccc21 (stereo not drawn)	n
CC1CCC2C(C(=O)O[C@H]3C4CCO[C@@H](OC5OC(CO)C(O)C(O)C5O)C4[C@@]4(CO)O[C@@H]34)=CO[C@@H](OC3OC(CO)C(O)C(O)C3O)C12 (stereo partly drawn)	n
O=C1O/C(=C\c2ccc(O)cc2)C(c2ccc(O)c(Cl)c2)=C1Br	n
Nc1nc(Cl)cc(NCC2(CO)CC(c3ccccc3)C2)n1 (stereo not drawn)	n
CCOC(=O)c1[nH]c2ccccc2c1C(=O)C[C@H](NC(=O)C(F)(F)F)C(=O)OC	n
COc1c2c(cc3c1C(O)N1CC[C@]34[C@H]3O[C@H]3[C@H](OC)C[C@@H]14)OCO2 (stereo partly drawn)	n
CC12CCC([C@H](C(O)C3CCCCC3)C1=O)C2(C)C (stereo partly drawn)	n
c1ccc(N/N=C2\NN=C(c3ccccc3)CS2)cc1	n
S=c1c2nc[nH]c2ncn1CCSC1=NC=NC2=NC=NC21 (stereo not drawn)	n
Cc1cccc2nc3c(=O)[nH]c(=O)nc-3n(C)c12	n
COC(=O)CCc1cccnc1/C=N/O	n
COC(=O)C1=C(C(=O)OC)SC2(S1)C(C(=O)OC)=C(C(=O)OC)Sc1c2ss/c1=N/C(C)(C)C	y
Cc1c(NC(=O)Nc2c(Cl)cccc2Cl)c(=O)n(-c2ccccc2)n1C	n
CC1=C(CC2C(=O)N(c3ccccc3)S(=O)(=O)NC2C)C(=O)N(c2ccccc2)S(=O)(=O)N1C (stereo not drawn)	n
NC(=O)Cn1c(=O)oc2cc(C(=O)CN3CCOCC3)ccc21	n
CC12CCC(C)(c3cc(O)c(O)cc31)c1cc(O)c(O)cc12	n
COc1cc(C2c3cc4c(cc3[C@@H](Oc3ccc(F)cc3)C3COC(=O)[C@H]23)OCO4)cc(OC)c1O (stereo partly drawn)	y
